Experiment Description: inhibitors of MT1-MMP promoter transcription, cell-based, luciferase reporter, luminescence (AID 618);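 note: actives suppress MT1-MMP promoter-driven transcription so potencies describe inhibitors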
Test Context: MT1-MMP promoter luciferase reporter cells
Hit rate of the full screen: of about 87,000 compounds, about 540 (0.62%) were called active. The rule behind the calls is not given here. The entries come from a sample that favours actives as a whole. Entries with a potency or affinity are not part of this list.
Thanks in advance; please answer with one of these: True = active, False = inactive

These solved cases illustrate the format of a correct answer.
> print(dat)
                                   compound  label
1                  CN1CCC(NC(=O)c2cccs2)CC1  False
2  CCOC(=O)C1C(=O)NC(N2CCN(Cc3ccccc3)CC2)=NC1c1ccccc1 (stereo not drawn)  False

What outcome does the record of this test show for COc1cc(-c2nc(S(=O)(=O)c3ccc(C)cc3)c(N(C)C)o2)cc(OC)c1OC ?
False

Which result was noted for this compound in the test: COc1ccc(NC(=O)CCn2nnc(-c3ccc(C)cc3)n2)cc1OC
False

Tell me the assay call for COC(=O)c1ccccc1NC(=O)Cn1c(=O)oc2ccc(Cl)cc21 please.
False

What did the test return for COc1ccc(-c2c(C)n([O-])c(C)c(C)[n+]2=O)cc1 ?
False
